Experimental system: human recombinant renin (Homo sapiens, UniProt P00797)
Sequence (P00797 67-406): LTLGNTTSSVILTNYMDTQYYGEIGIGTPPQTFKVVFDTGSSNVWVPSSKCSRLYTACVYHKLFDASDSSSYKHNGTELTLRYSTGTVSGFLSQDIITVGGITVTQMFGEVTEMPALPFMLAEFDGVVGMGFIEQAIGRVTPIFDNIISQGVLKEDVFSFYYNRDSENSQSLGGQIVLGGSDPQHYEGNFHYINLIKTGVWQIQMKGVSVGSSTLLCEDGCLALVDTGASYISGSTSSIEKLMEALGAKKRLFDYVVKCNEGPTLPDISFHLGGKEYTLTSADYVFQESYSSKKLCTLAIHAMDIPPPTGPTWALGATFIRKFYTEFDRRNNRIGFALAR
Procedure details: Inhibition of human recombinant renin, enzymatic in vitro assay with Ang I EIA detection
Settings: human recombinant renin 0.16 ng/mL, synthetic human angiotensin(1-14) 0.5 μM, 37° C. for 3 h; read-out: IC50 (concentration that inhibited the enzyme activity by 50%)
pIC50: −log10 of the molar value.
Readout label: pIC50

{"Molecule": "COCCOc1nccc(CN(C(=O)C2=C(c3ccc(CCCOc4c(F)ccc(F)c4Cl)cc3)C[C@@H]3CNC[C@H]2N3)C2CC2)c1C (racemic)", "Value": 9.00}
{"Molecule": "COCCOc1cccc(CN(C(=O)C2=C(c3ccc(CCCOc4c(F)ccc(F)c4Cl)cc3)CC3CNCC2N3)C2CC2)c1C (racemic)", "Value": 8.98}
